# TARGET_DESC: T1, Plasmodium falciparum histidine-rich protein II (HRP-II) (Plasmodium falciparum, UniProt P05227 22-332)
# T1 construct: Coating antigen of all ELISAs; also called HRP-II protein; MA-HRPII Ag protein
# T1 sequence (looked up): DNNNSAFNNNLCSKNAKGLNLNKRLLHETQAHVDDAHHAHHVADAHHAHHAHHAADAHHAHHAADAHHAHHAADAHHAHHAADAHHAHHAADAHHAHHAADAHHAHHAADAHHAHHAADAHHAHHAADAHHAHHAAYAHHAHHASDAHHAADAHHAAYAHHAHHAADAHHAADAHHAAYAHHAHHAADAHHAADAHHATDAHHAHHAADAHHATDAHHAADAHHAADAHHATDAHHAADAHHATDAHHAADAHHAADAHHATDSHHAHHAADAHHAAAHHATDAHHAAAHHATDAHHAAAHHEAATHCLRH
# METHOD_SUMMARY: indirect ELISA, four antigen coating concentrations;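 note: optical density read across an antibody dilution series at each antigen coating level, curves plotted on log scale, KD derived as reciprocal of the averaged constant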
Just a reminder that ties go to no (0): only Kd strictly below 0.2 nM counts as yes (1).

See these solved cases before continuing.
- BINDER: "Mutation 1-15 (antibody, mouse IgG2b, kappa, V domains shown, Mutation 1 as framework) VH: EVQLQQSGPEVVKPGASVKISCKASGYTITDYYMNWVKQSHGKGLEWIGDLNPIQGGTAYNQKFRDKATLTVDKSSNTAYMELRSLTSEDSALYYCTRGAEDYWGQGTTLTVSS VL: DVVLTQTPLSLSVTIGQPASISCKSSQSLIYSNGKIYLNWFQQRPGQSPKRLMYQLSKLEPGIPDRFSGSGSETDFTLKISRVEAEDLGVYYCLQGTYTPQTFGGGTKLEIKR"
  CLASS: "no (0)"
- BINDER: "Mutation 1-12 (antibody, mouse IgG2b, kappa, V domains shown, Mutation 1 as framework) VH: EVQLQQSGPEVVKPGASVKISCKASGYTITDYYMNWVKQSHGKGLEWIGDLNPINGGTAYNQKFRDKATLTVDKSSNTAYMELRSLTSEDSALYYCTRGAEDYWGQGTTLTVSS VL: DVVLTQTPLSLSVTIGQPASISCKSSQSILYSNGKIYLNWFQQRPGQSPKRLMYQISKLDPGIPDRFSGSGSETDFTLKISRVEAEDLGVYYCLQGTYSPQTFGGGTKLEIKR"
  CLASS: "yes (1)"
- BINDER: "Mutation 1-49 (antibody, mouse IgG2b, kappa, V domains shown, Mutation 1 as framework) VH: EVQLQQSGPEVVKPGASVKISCKASGYTLTDYYMNWVKQSHGKGLEWIGDINPIQGGTAYNQKFRDKATLTVDKSSNTAYMELRSLTSEDSALYYCTKGAEDYWGQGTTLTVSS VL: DVVLTQTPLSLSVTIGQPASISCKSSQSLLYSQGKIYLNWFQQRPGQSPKRLMYQISKLEPGIPDRFSGSGSETDFTLKISRVEAEDLGVYYCLQATYTPQTFGGGTKLEIKR"
  CLASS: "yes (1)"
- BINDER: "Mutation 1-23 (antibody, mouse IgG2b, kappa, V domains shown, Mutation 1 as framework) VH: EVQLQQSGPEVVKPGASVKISCKASGTTLTDYYMNWVKQSHGKGLEWIGDVNPIQGGTAYNQKFRDKATLTVDKSSNTAYMELRSLTSEDSALYYCTRGAEDYWGQGTTLTVSS VL: DVVLTQTPLSLSVTIGQPASISCKSSQSIIYSNGKIYLNWFQQRPGQSPKRLMYQVSKLEPGIPDRFSGSGSETDFTLKISRVEAEDLGVYYCLQGTYYPQTFGGGTKLEIKR"
  CLASS: "no (0)"
- BINDER: "Mutation 1-45 (antibody, mouse IgG2b, kappa, V domains shown, Mutation 1 as framework) VH: EVQLQQSGPEVVKPGASVKISCKASGYTITDYYMNWVKQSHGKGLEWIGDLNPINGGTAYNQKFRDKATLTVDKSSNTAYMELRSLTSEDSALYYCTKGAEDYWGQGTTLTVSS VL: DVVLTQTPLSLSVTIGQPASISCKSSQSILYSQGKIYLNWFQQRPGQSPKRLMYQLSKLEPGIPDRFSGSGSETDFTLKISRVEAEDLGVYYCLQGTYYPQTFGGGTKLEIKR"
  CLASS: "no (0)"

Kindly consider the entry below.
Confirm or reject: Kd of Mutation 1-5 (antibody, mouse IgG2b, kappa, V domains shown, Mutation 1 as framework) VH: EVQLQQSGPEVVKPGASVKISCKASGSTLTDYYMNWVKQSHGKGLEWIGDVNPINGGTAYNQKFRDKATLTVDKSSNTAYMELRSLTSEDSALYYCTRGAEDYWGQGTTLTVSS VL: DVVLTQTPLSLSVTIGQPASISCKSSQSILYSQGKIYLNWFQQRPGQSPKRLMYQVSKLEPGIPDRFSGSGSETDFTLKISRVEAEDLGVYYCLQGTYTPQTFGGGTKLEIKR lies strictly below 0.2 nM
yes (1)

Where do these numbers come from? They come from patent US20220002395A1.
